Catalogue of Enzyme Kass, Trypsin readings, one per entry.
- Measurement Target: Trypsin (Bos taurus, UniProt P00760)
- Construct: Bovine trypsin is purchased; purchased Worthington Biochemicals, Freehold, N.J
- Sequence (P00760 24-246): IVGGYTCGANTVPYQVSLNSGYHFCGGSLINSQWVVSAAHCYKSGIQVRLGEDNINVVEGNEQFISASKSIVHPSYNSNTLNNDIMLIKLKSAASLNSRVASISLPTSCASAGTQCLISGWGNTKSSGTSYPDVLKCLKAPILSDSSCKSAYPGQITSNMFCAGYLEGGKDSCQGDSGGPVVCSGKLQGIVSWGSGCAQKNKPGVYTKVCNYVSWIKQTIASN
- Test Name: Serine protease selectivity, chromogenic substrate (Kass), trypsin
- Assay type: biochemical, bovine
- Condition Parameters: substrate N-Benzoyl-Phe-Val-Arg-p-nitroanilide
- Description: The assay is carried out by mixing 50 μL buffer (0.03M Tris, 0.15M NaCl, pH 7.4) with 25 μL of bovine thrombin or human thrombin solution (0.21 mg/mL of thrombostat bovine thrombin, Parke-Davis, or purified human thrombin, Enzyme Research Laboratories, South Bend, Ind., at about 8 NIH units/mL, in the same buffer) and 25 μL of test compound in a solvent (in 50% aqueous methanol, v:v). […]
Reply with just the number (in L/mol × 10^6).

compound="CCS(=O)(=O)N[C@@H](C(=O)N1C[C@@H](Oc2ccccc2)C[C@H]1C(=O)N[C@H](C=O)CCCNC(=N)N)c1ccccc1.Cl (relative stereo) [Example 17, EtSO2 -D-Phg-Pro(4-cis-phenoxy)-ArgH.HCl]" measurement_target="Trypsin (Bos taurus, UniProt P00760)" observation_type="Enzyme Kass, Trypsin" result_number=910
compound="C[C@H]1C[C@@H](C(=O)N[C@H](C=O)CCCNC(=N)N)N(C(=O)[C@H]2CCCCN2)C1.Cl.Cl (relative stereo)" measurement_target="Trypsin (Bos taurus, UniProt P00760)" observation_type="Enzyme Kass, Trypsin" result_number=390
compound="CC(C)CC[C@H]1C[C@@H](C(=O)N[C@H](C=O)CCCNC(=N)N)N(C(=O)C2NCCC3CCCCC32)C1.Cl.Cl (relative stereo) [Example 28, 1-Piq-Pro(4-cis-isoamyl)-ArgH.2 HCl]" measurement_target="Trypsin (Bos taurus, UniProt P00760)" observation_type="Enzyme Kass, Trypsin" result_number=20.30
compound="Cl.Cl.N=C(N)NCCC[C@@H](C=O)NC(=O)[C@@H]1C[C@H](Oc2ccccc2)CN1C(=O)C1NCCC2CCCCC21 (relative stereo) [Example 15, D-1-Piq-Pro(4-cis-phenoxy)-ArgH.2 HCl]" measurement_target="Trypsin (Bos taurus, UniProt P00760)" observation_type="Enzyme Kass, Trypsin" result_number=140

# ---- query compound ----
Noted Enzyme Kass, Trypsin for CC(=O)Nc1cccc(O[C@H]2C[C@@H](C(=O)N[C@H](C=O)CCCNC(=N)N)N(C(=O)[C@H]3CCCCN3)C2)c1.Cl.Cl (relative stereo) , tested on Trypsin (Bos taurus, UniProt P00760): 56

---

- Measurement Target: Human Thrombin (Homo sapiens, UniProt P00734)
- Test Name: Inhibition of amidase activity of thrombin (Kass)
- Assay type: biochemical
- Condition Parameters: apparent association constant, mean over a range of concentrations
Label label 1 for high-side Enzyme Kass, Human Thrombin (at or above 20 L/mol × 10^6) and label 0 for low-side Enzyme Kass, Human Thrombin (below it).

Examples from the recorded data:
molecule="CC(=O)Nc1ccc(O[C@H]2C[C@@H](C(=O)N[C@H](C=O)CCCNC(=N)N)N(C(=O)[C@H]3CCCCN3)C2)cc1.Cl.Cl (relative stereo)" category_label="label 0"
molecule="Cl.Cl.N=C(N)NCCCC(C=O)NC(=O)C1CC2CCCCC2N1C(=O)C1CC2CCCCC2CN1 [Example 25, D-3-cis-Piq-cis-Ohi-ArgH.2 HCl]" category_label="label 1"
molecule="Cl.Cl.N=C(N)NCCC[C@@H](C=O)NC(=O)[C@@H]1C[C@H](Oc2cccc(C(=O)O)c2)CN1C(=O)[C@H]1CCCCN1 (relative stereo)" category_label="label 0"

For the next question, use this molecule.
Has Cl.Cl.N=C(N)NCCC[C@@H](C=O)NC(=O)[C@@H]1CC2CCCCC2N1C(=O)[C@H]1CCCCN1 (relative stereo) a recorded Enzyme Kass, Human Thrombin greater than or equal to 20 L/mol × 10^6?
label 1
